- Tested on: A498 renal
- Assay Text: NCI tumour cell line growth inhibition, 48 h
Let's look at some molecules and their measured TGI.

Requested read-out: TGI. Entry: CSC(=S)N/N=C(\C)c1ccc(S(=O)(=O)N(C)c2ccccc2)cc1
> 100 µM

Would you mind doing CCOC(=O)CC(=O)ON(C)C(C)=O as well?
> 100 µM

Also, COc1c(Cl)c(=O)oc2ccc(Cl)cc12 please.
> 100 µM

Try this molecule too: CC1(C)C2CCC(=O)C1CC2 (stereo not drawn)
> 100 µM

Moving on to COc1cc(C2c3cc4c(cc3OC(C)(O)C2C)OCO4)cc(OC)c1OC (stereo not drawn)
> 100 µM
